Target: T1, orthogonal hCD122 receptor (hoRb), hCD122 with H133D and Y134F (human, UniProt P14784 27-550)
T1 sequence: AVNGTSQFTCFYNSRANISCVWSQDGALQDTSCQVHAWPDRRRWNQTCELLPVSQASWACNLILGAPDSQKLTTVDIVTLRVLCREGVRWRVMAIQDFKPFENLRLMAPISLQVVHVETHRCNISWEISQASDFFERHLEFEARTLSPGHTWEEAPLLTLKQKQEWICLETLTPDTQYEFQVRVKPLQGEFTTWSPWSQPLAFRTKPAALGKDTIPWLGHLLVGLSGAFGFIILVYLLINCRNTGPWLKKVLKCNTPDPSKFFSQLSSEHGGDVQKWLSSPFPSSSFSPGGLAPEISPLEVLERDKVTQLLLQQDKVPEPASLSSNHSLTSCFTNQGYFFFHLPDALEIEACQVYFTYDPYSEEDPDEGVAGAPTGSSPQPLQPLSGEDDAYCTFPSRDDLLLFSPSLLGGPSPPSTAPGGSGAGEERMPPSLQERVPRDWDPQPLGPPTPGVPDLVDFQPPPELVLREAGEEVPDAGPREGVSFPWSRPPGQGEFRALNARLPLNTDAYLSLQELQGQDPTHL
Test: cell-based or functional assay
Quantity: 3F8 Ortho Proliferation Signal 1:10 (cts/min)

binder="G27K, SQVLKA (ligand) APTSSSTKKTQLQLSQLLVLLKAILNKINNYKNPKLTRMLTFKFYMPKKATELKHLQCLEEELKPLEEVLNLAQSKNFHLRPRDLISNINVIVLELKGSETTFMCEYADETATIVEFLNRWITFCQSIISTLT" quantitative_result=23700
binder="V91R, SQVLKA (ligand) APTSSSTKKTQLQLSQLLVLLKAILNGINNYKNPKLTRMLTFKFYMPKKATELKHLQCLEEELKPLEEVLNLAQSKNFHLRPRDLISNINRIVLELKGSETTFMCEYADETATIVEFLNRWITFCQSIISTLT" quantitative_result=5140

[1] SQVLKY (ligand) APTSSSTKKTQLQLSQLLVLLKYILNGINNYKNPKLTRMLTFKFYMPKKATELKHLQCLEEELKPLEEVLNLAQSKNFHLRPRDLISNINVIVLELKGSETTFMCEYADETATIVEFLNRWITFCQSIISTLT
[2] Q13W SQVLKA (ligand) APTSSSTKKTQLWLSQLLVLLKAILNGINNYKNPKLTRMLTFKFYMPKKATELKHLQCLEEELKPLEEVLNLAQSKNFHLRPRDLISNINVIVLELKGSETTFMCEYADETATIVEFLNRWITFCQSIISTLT
## Task Of the pair 1 and 2 , name the member with the lesser recorded 3F8 Ortho Proliferation Signal 1:10. # respond with the chosen item's label
## Result 2
